Data origin: patent US7943770B2

# maps each entry to its IC50
Target sequence: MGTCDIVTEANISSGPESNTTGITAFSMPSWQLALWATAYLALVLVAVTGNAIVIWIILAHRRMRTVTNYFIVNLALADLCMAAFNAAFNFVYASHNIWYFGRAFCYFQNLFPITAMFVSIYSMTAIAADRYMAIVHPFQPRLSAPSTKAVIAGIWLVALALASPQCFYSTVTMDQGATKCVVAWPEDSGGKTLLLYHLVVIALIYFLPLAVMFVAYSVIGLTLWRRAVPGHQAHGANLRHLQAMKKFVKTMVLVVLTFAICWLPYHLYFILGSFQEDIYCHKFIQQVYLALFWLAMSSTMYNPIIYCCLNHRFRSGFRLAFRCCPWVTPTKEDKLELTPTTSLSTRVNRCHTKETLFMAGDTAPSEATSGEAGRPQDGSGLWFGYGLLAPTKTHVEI

# annotated cases, reported IC50 shown
Item C[C@]12CCN(C(=O)[C@H]3CCCC[C@H]3NC(=O)c3ccccc3)[C@H]1c1ccccc1N[C@H]2c1ccccc1 has what recorded IC50?
< 10 nM

Continue with COC[C@@H]1Nc2ccccc2[C@H]2[C@@H]1CCN2C(=O)[C@H]1CCCC[C@H]1NC(=O)c1ccc(N(C)CCO)cc1
< 10 nM

Continue with O=C(N[C@@H]1CCCC[C@@H]1C(=O)N1CC[C@@H]2[C@H](c3ccccc3)Nc3ccccc3[C@@H]21)c1ccncc1
< 10 nM

Continue with N#Cc1ccc(C(=O)N[C@@H]2CCCC[C@@H]2C(=O)N2CC[C@@H]3[C@H](c4ncc[nH]4)Nc4ccccc4[C@@H]32)cc1
< 1 nM

Continue with CCC[C@@H]1Nc2ccccc2[C@H]2[C@@H]1CCN2C(=O)[C@H]1CCCC[C@H]1NC(=O)c1ccccc1
< 1 nM

Continue with COC[C@@H]1Nc2ccccc2[C@H]2[C@@H]1CCN2C(=O)[C@H]1CCCC[C@H]1NC(=O)Nc1ccc(C#N)c(C)c1
< 1 nM

Continue with COc1ccc(C(=O)N[C@@H]2CCCC[C@@H]2C(=O)N2CC[C@@H]3[C@H](c4ccccc4)Nc4ccccc4[C@@H]32)cc1OC
< 1 nM

Continue with COC[C@@H]1Nc2ccccc2[C@H]2[C@@H]1CCN2C(=O)[C@H]1CCCC[C@H]1NC(=O)c1ccc2c(c1)nc(C)n2C
< 10 nM

Further cases:
Item COC(=O)c1ccc(C(=O)N[C@@H]2CCCC[C@@H]2C(=O)N2CC[C@@H]3[C@H](c4ccccc4)Nc4ccccc4[C@@H]32)cc1 has what recorded IC50?
< 10 nM

Continue with COC[C@@H]1Nc2ccccc2[C@H]2[C@@H]1CCN2C(=O)[C@H]1CCCC[C@H]1NC(=O)c1ccc(-c2csc(C)n2)cc1
< 1 nM

Continue with O=C(NCc1ccccc1)N[C@@H]1CCCC[C@@H]1C(=O)N1CC[C@@H]2[C@H](c3ccccc3)Nc3ccccc3[C@@H]21
< 10 nM

Continue with CCCCCC(=O)N[C@@H]1CCCC[C@@H]1C(=O)N1CC[C@@H]2[C@H](c3ccccc3)Nc3ccccc3[C@@H]21
< 10 nM

Continue with COc1ccc(C(=O)N[C@@H]2CCCC[C@@H]2C(=O)N2CC[C@@H]3[C@H](C4CC4)Nc4ccccc4[C@@H]32)cc1
< 1 nM

Continue with O=C(Nc1ccccc1)N[C@@H]1CCCC[C@@H]1C(=O)N1CCc2c(-c3ccccc3)nc3ccccc3c21
< 10 nM

Continue with COc1ccc(C(=O)N[C@@H]2CCCC[C@@H]2C(=O)N2CC[C@@H]3[C@H](c4ccccc4)Nc4ccccc4[C@@H]32)cc1
< 1 nM

Continue with CCNC(=O)N[C@@H]1CCCC[C@@H]1C(=O)N1CC[C@@H]2[C@H](c3ccsc3)Nc3ccccc3[C@@H]21
< 1 nM

----------
Consider the following pIC50 values measured on hNK2 receptor (Homo sapiens, UniProt P21452).
pIC50: −log10 of the molar value. Where a name gives a salt, the structure may show the parent alone.

# annotated cases, reported pIC50 shown
Fill in the recorded pIC50 for this compound, with hNK2 receptor (Homo sapiens, UniProt P21452) as test system: O=C(N[C@@H]1CCCC[C@@H]1C(=O)N1CC[C@@H]2[C@H](C3CC3)Nc3ccccc3[C@@H]21)c1ccccc1 (relative stereo) [Example 29]
> 8.00

Continue with CNC[C@@H]1Nc2ccccc2[C@H]2[C@@H]1CCN2C(=O)[C@H]1CCCC[C@H]1NC(=O)c1ccccc1 (relative stereo) [Example 53, dihydrochloride]
> 8.00

Now look at this one.
Fill in the recorded pIC50 for this compound, with hNK2 receptor (Homo sapiens, UniProt P21452) as test system: O=C(N[C@@H]1CCCC[C@@H]1C(=O)N1CC[C@@H]2[C@H](c3ccccc3)Nc3c(F)cccc3[C@@H]21)c1ccccc1 (relative stereo) [Example 8]
> 8.00

----------
pIC50: −log10 of the molar value.
Consider the following pIC50 values measured on hNK2 receptor (Homo sapiens, UniProt P21452).

# annotated cases, reported pIC50 shown
Item N#Cc1cccc(C(=O)N[C@@H]2CCCC[C@@H]2C(=O)N2CC[C@@H]3[C@H](c4ncc[nH]4)Nc4ccccc4[C@@H]32)c1 has what recorded pIC50?
> 9.00

Continue with O=C(Nc1ccc(C(F)(F)F)cc1)N[C@@H]1CCCC[C@@H]1C(=O)N1CC[C@@H]2[C@H](c3ccccc3)Nc3ccccc3[C@@H]21
> 8.00

Further cases:
Item O=C(CCc1ccccc1)N[C@@H]1CCCC[C@@H]1C(=O)N1CC[C@@H]2[C@H](C3CC3)Nc3ccccc3[C@@H]21 has what recorded pIC50?
> 9.00

----------
Consider the following pIC50 values measured on hNK2 receptor (Homo sapiens).
pIC50: −log10 of the molar value.

Item CC(C)NC(=O)N[C@@H]1CCCC[C@@H]1C(=O)N1CC[C@@H]2[C@H](c3ccccc3)Nc3ccccc3[C@@H]21 has what recorded pIC50?
> 8.00

Further cases:
Item COC[C@@H]1Nc2ccccc2[C@H]2[C@@H]1CCN2C(=O)[C@H]1CCCC[C@H]1NC(=O)c1ccc(-c2ncc[nH]2)cc1 has what recorded pIC50?
> 9.00

Continue with O=C(N[C@@H]1CCCC[C@@H]1C(=O)N1CC[C@@H]2[C@H](c3cccs3)Nc3ccccc3[C@@H]21)c1ccccc1 (relative stereo)
> 8.00

Continue with COCCN(C)c1ccc(C(=O)N[C@@H]2CCCC[C@@H]2C(=O)N2CC[C@@H]3[C@H](COC)Nc4ccccc4[C@@H]32)cc1
> 9.00

Continue with CC(C)CCNC(=O)N[C@@H]1CCCC[C@@H]1C(=O)N1CC[C@@H]2[C@H](c3ccccc3)Nc3ccccc3[C@@H]21
> 9.00

Continue with Cc1cc(C(=O)N[C@@H]2CCCC[C@@H]2C(=O)N2CC[C@@H]3[C@H](c4ncc[nH]4)Nc4ccccc4[C@@H]32)ccc1C#N
> 9.00

Continue with CCC[C@@H]1Nc2ccccc2[C@H]2[C@@H]1CCN2C(=O)[C@H]1CCCC[C@H]1NC(=O)c1ccc(OC)cc1
> 9.00

Continue with O=C(N[C@@H]1CCCC[C@@H]1C(=O)N1CC[C@@H]2[C@H](c3ncc[nH]3)Nc3ccccc3[C@@H]21)c1ccc2[nH]nnc2c1
> 9.00

Continue with O=C(N[C@@H]1CCCC[C@@H]1C(=O)N1CC[C@@H]2[C@H](c3ncc[nH]3)Nc3ccccc3[C@@H]21)c1cccc(C(F)(F)F)c1
> 9.00

Continue with COC[C@@H]1Nc2ccccc2[C@H]2[C@@H]1CCN2C(=O)[C@H]1CCCC[C@H]1NC(=O)Nc1ccc(-n2ccnc2)cc1
> 9.00

Continue with COC[C@@H]1Nc2ccccc2[C@H]2[C@@H]1CCN2C(=O)[C@H]1CCCC[C@H]1NC(=O)c1ccc2[nH]ccc2c1
> 9.00

Continue with COC[C@@H]1Nc2ccccc2[C@H]2[C@@H]1CCN2C(=O)[C@H]1CCCC[C@H]1NC(=O)c1ccc(-n2cccn2)nc1
> 9.00

Continue with CCOC(=O)CCNC(=O)N[C@@H]1CCCC[C@@H]1C(=O)N1CC[C@@H]2[C@H](c3ccccc3)Nc3ccccc3[C@@H]21
> 8.00

Continue with NC(=O)c1ccc(C(=O)N[C@@H]2CCCC[C@@H]2C(=O)N2CC[C@@H]3[C@H](c4ncc[nH]4)Nc4ccccc4[C@@H]32)cc1
> 8.00

----------
Target protein (sequence): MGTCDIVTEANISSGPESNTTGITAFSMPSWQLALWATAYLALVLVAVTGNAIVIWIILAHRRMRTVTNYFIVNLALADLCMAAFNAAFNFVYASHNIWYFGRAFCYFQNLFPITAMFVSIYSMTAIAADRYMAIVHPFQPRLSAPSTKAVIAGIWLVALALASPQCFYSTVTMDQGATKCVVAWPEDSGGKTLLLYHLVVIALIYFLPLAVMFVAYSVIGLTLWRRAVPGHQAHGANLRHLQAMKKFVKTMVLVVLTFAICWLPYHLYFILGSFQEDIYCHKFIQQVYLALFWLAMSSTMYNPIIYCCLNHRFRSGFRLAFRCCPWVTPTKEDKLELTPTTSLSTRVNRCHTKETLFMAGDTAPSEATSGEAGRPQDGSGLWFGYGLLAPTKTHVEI
pIC50: −log10 of the molar value.
recorded-metric: pIC50

Item O=C(Nc1ccccc1)N[C@@H]1CCCC[C@@H]1C(=O)N1CC[C@@H]2[C@H](c3ncc[nH]3)Nc3ccccc3[C@@H]21 has what recorded pIC50?
> 9.00

Continue with O=C(/C=C/c1ncc[nH]1)N[C@@H]1CCCC[C@@H]1C(=O)N1CC[C@@H]2[C@H](c3ccccc3)Nc3ccccc3[C@@H]21
> 9.00

Continue with N#Cc1ccc(NC(=O)N[C@@H]2CCCC[C@@H]2C(=O)N2CC[C@@H]3[C@H](c4ccccc4)Nc4ccccc4[C@@H]32)cc1
> 8.00

Continue with COC[C@@H]1Nc2ccccc2[C@H]2[C@@H]1CCN2C(=O)[C@H]1CCCC[C@H]1NC(=O)c1ccc2[nH]c(C)nc2c1
> 9.00

Continue with NC(=O)c1ccc(NC(=O)N[C@@H]2CCCC[C@@H]2C(=O)N2CC[C@@H]3[C@H](c4ccccc4)Nc4ccccc4[C@@H]32)cc1
> 9.00

Further cases:
Item O=C(N[C@@H]1CCCC[C@@H]1C(=O)N1CC[C@@H]2[C@H](c3ccccc3)Nc3ccccc3[C@@H]21)c1ccccc1 (relative stereo) has what recorded pIC50?
> 8.00

Continue with CCCCNC(=O)N[C@@H]1CCCC[C@@H]1C(=O)N1CC[C@@H]2[C@H](c3ccccc3)Nc3ccccc3[C@@H]21
> 9.00

Continue with CCNC(=O)N[C@@H]1CCCC[C@@H]1C(=O)N1CC[C@@H]2[C@H](C3CC3)Nc3ccccc3[C@@H]21
> 8.00

Continue with COC[C@@H]1Nc2ccccc2[C@H]2[C@@H]1CCN2C(=O)[C@H]1CCCC[C@H]1NC(=O)/C=C/c1ccc(C(F)(F)F)cc1
> 9.00

Continue with O=C(Nc1ccccc1)N[C@@H]1CCCC[C@@H]1C(=O)N1CC[C@@H]2[C@H](C3CC3)Nc3ccccc3[C@@H]21
> 9.00

Continue with O=C(Nc1ccc(Cl)cc1)N[C@@H]1CCCC[C@@H]1C(=O)N1CC[C@@H]2[C@H](c3ccccc3)Nc3ccccc3[C@@H]21
> 8.00

Continue with O=C(N[C@@H]1CCCC[C@@H]1C(=O)N1CC[C@@H]2[C@H](c3ccccc3)Nc3ccccc3[C@@H]21)c1ncc[nH]1
> 8.00

Continue with O=C(N[C@@H]1CCCC[C@@H]1C(=O)N1CC[C@@H]2[C@H](c3ccccc3)Nc3ccccc3[C@@H]21)c1ccc(F)cc1
> 8.00

Continue with CNc1ccc(C(=O)N[C@@H]2CCCC[C@@H]2C(=O)N2CC[C@@H]3[C@H](COC)Nc4ccccc4[C@@H]32)cc1
> 9.00

Continue with O=C(N[C@@H]1CCCC[C@@H]1C(=O)N1CC[C@@H]2[C@H](c3ccccc3)Nc3ccc(F)cc3[C@@H]21)c1ccccc1
> 8.00
